test-description: Oral pharmacokinetics of nalbuphine HCl solution versus tablets, fed and fasted, across studies
assay-context: human, plasma
Counter-ions that a name gives are not always drawn.
measurement-label: Tmax

INSERT INTO measurements (compound, measurement_label, test_result) VALUES
  ('Oc1ccc2c3c1O[C@H]1[C@@H](O)CC[C@@]4(O)[C@@H](C2)N(CC2CCC2)CC[C@]314 [nalbuphine, hydrochloride]', 'Tmax', '30 to 60 min');
